Test system: K4 kissing-loop RNA reporter;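 also: bound reporter read as fluorescence of individual clusters on recovered sequencing chips by microscopy, with normalized cluster intensities fitted with a binding model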
experimental.details: apparent KD of K4 kissing-loop reporter; higher = weaker reporter binding
condition.summary: Eterna round: R107; input ligand: none
attribute.measured: apparent KD of K4 kissing-loop reporter (nM)
Just the number please, in nM, no unit attached.

In: Determine from records and report apparent KD of K4 kissing-loop reporter for UAUGGCGAGGGCCGCAUAUCAUUAAACCAGAAGGAUAUAUGUUACUAUAGAAGGUCUGCCGCUGCGAGUGAUGUUUGGAGUGAUC [theeternabot_sameState_KL_FMN_A_3]
Out: 260

In: # return recorded apparent KD of K4 kissing-loop reporter for input AAGGGCUAGGCGGCCGCCACUGGUCGUGUACACAUACGAACCAGUGAUGUUGGUAUUGUAUGCGGCAGGACCGGGCCUAGCCGAA [Exclusion - Tryptophan B (Freestyle 26)]
Out: 448

In: Tell me measured apparent KD of K4 kissing-loop reporter for AGAACUGUCUGAGAUACCAGCUAAGGAGUGAUGUUCCUAGCUCCACGAAAGUGGAGCCAUAGCCCUUGGCAGCUCAGACAGUUCA [Omei KL Theo B SS A v6] please.
Out: 1050

In: Provide one value: measured apparent KD of K4 kissing-loop reporter of AACUGUCAAGGAACUUGCAACAAAGGUGAUACCAGCAUCGAAAGAUGCCCUUGGCAGCACCAACUUGCAGUGAUGUUGCAAGUAA [(T)'-(H)'-(T1)-(T2)-(H1)-(H2)_Design7]
Out: 322

In: Specify reported apparent KD of K4 kissing-loop reporter for the sequence shown: CCAGUGAUAAACGAUACCAGAAAUACCUUAUUUGGCCGGCGGAGUGAUGUUCCUAAUACUUUCCCUUGGCAGCGUCGAAUGCUAG [theeternabot_sameState_KL_Theo_B_16]
Out: 46
